# Test system: Malme-3M
# ASSAY_NOTES: NCI tumour cell line growth inhibition, 48 h
Active and inactive are the calls of the source. Cut-off read from the data, not from the text of the source: active = GI50 up to about 1.1 µM and inactive = higher.
Classes used: active, inactive

# MOLECULE, TESTED_TARGET, GROUP
rows = [
    ("Cc1cc2oc(=O)[nH]c(=S)c2c(C)c1C", "Malme-3M", "inactive"),
    ("ClC1=C(Cl)C(Cl)(Cl)SS1", "Malme-3M", "inactive"),
    ("COC(OC)c1cc2c(cc1C=O)OCO2", "Malme-3M", "active"),
    ("OC(CN(CCCl)CCCl)C(O)C(O)C(O)CN(CCCl)CCCl (stereo not given)", "Malme-3M", "inactive"),
    ("Cc1cc(C)nc(NS(=O)(=O)c2ccc(NC(=O)c3cccc4c(NNc5ccc(S(=O)(=O)N=C(N)N)cc5)c5ccccc5nc34)cc2)n1", "Malme-3M", "inactive"),
    ("COc1cc2c(cc1OC)[C@H]1C(COC(=O)Nc3ccccc3)CN1CC2 (stereo not given in full)", "Malme-3M", "inactive"),
    ("COC(=O)[C@]1(C)CCC[C@@]2(C)[C@@H]3C[C@@H]4[C@H]5C[C@@]3(CC[C@@H]21)C[C@@]45C", "Malme-3M", "inactive"),
    ("Nc1n[nH]c2nc3ccc(C(F)(F)F)cc3nc12", "Malme-3M", "inactive"),
    ("COc1ccc(N2C=Nn3c(nc4sc5c(c4c3=O)CCCC5)C2)cc1", "Malme-3M", "inactive"),
    ("C[n+]1cccc(/C=C/c2ccc3cccc(O)c3n2)c1", "Malme-3M", "inactive"),
]

====

# Test system: HL-60
# ASSAY_NOTES: NCI tumour cell line growth inhibition, 48 h
Active and inactive are the calls of the source. No stated cut-off is given here; in the data, active = GI50 up to about 1.1 µM and inactive = higher.
Classes used: TRUE for active, FALSE for inactive

# MOLECULE, GROUP
measured = [
    ("CCOC(=O)C1=NN(c2ccccc2)C2=CC(C)=NN(C)C(=S)N21", "FALSE"),
    ("O=C1C=C(Br)C(=O)C12CCc1ccccc12 (stereo not given)", "FALSE"),
    ("Cc1nn(C(=O)c2ccc(Cl)cc2)c2c1C(c1ccc(Cl)cc1)SC(=N)N2 (stereo not given)", "FALSE"),
    ("Clc1nncc2sc(-c3ccccc3)nc12", "FALSE"),
    ("COc1ccc2c(c1)/C(=C\\c1c(-c3ccccc3)nc3n1CCS3)C(=O)N2", "FALSE"),
    ("c1ccc(C(c2cccc3c2ccc2ccccc23)C(c2ccccc2)c2cccc3c2ccc2ccccc23)cc1 (stereo not given)", "FALSE"),
    ("S=P(N1CCCC1)(N1CC1)N1CC1", "FALSE"),
    ("CCN(CC)c1ccc2c(c1)OC(=O)C(c1nnc(-c3ccc([N+](=O)[O-])cc3)o1)C2 (stereo not given)", "FALSE"),
    ("Cc1cc(O)c2c(c1O)C(=O)C1=C(C2=O)C(=O)C2C(O)C1C1C(O)CC(O)=C3C(=O)c4c(O)cc(C)c(O)c4C(=O)C321 (stereo not given)", "TRUE"),
    ("O=C1CSC2(CC(/C=C/c3ccccc3)=NN2c2cccc(S(=O)(=O)O)c2)N1c1nc2ccccc2s1 (stereo not given)", "FALSE"),
]

====

# Tested on: NCI/ADR-RES
# ASSAY_NOTES: NCI tumour cell line growth inhibition, 48 h
Activity calls are given as the source filed them. Rule as the data show it: active = GI50 up to about 1.1 µM and inactive = higher.
Outcomes: active, inactive

# COMPOUND, GROUP
data = [
    ("CS(=O)(=O)c1ccc(/C=N/NC(N)=S)cc1", "inactive"),
    ("CC(=O)c1cc2c(s1)C(=O)c1scc(C(C)=O)c1C2=O", "active"),
    ("Cc1cc(C)c2c(n1)S(=O)(=O)N(CCCN1CCN(c3cccc(C(F)(F)F)c3)CC1)c1c-2nn(C)c1C", "inactive"),
    ("CC(=O)OC1CC[C@@]2(C)C(=CC[C@@H]3[C@@H]2CC[C@]2(C)Nc4nn(S(C)(=O)=O)cc4C[C@@H]32)C1 (stereo not given in full)", "inactive"),
    ("Nc1n[nH]c2nc3ccc(C(F)(F)F)cc3nc12", "inactive"),
    ("O=C(O)C(CO)NC(=O)C1C(C(=O)O)C(c2ccccc2[N+](=O)[O-])C=C(c2ccco2)N1c1ccncc1 (stereo not given)", "inactive"),
    ("CC1(C)CC2(CC(C)(C)N1O)NC(=O)OC2=O", "inactive"),
    ("c1ccc(C(c2cccc3c2ccc2ccccc23)C(c2ccccc2)c2cccc3c2ccc2ccccc23)cc1 (stereo not given)", "inactive"),
    ("Cc1c2c(c(C)c3c4c(oc13)CCCC4)C=NCC2", "inactive"),
    ("COc1cccc(/C=N/n2c(Cc3ccc(Cl)cc3)n[nH]c2=O)c1", "inactive"),
    ("O=C1CSC2(CC(/C=C/c3ccccc3)=NN2c2cccc(S(=O)(=O)O)c2)N1c1nc2ccccc2s1 (stereo not given)", "inactive"),
    ("CCP(=S)(CC)CCl", "inactive"),
    ("Cc1cc(C)nc(NS(=O)(=O)c2ccc(NC(=O)c3cccc4c(NNc5ccc(S(=O)(=O)N=C(N)N)cc5)c5ccccc5nc34)cc2)n1", "inactive"),
    ("CC(C)NC(=O)OCC[S+]([O-])c1c(Cl)c(Cl)nn1C (stereo not given)", "inactive"),
    ("CCNC(=O)C1CCCN1C(=O)C(CCCN=C(N)N)NC(=O)C(CC(C)C)NC(=O)C(Cc1c[nH]c2ccccc12)NC(=O)C(Cc1ccc(O)cc1)NC(=O)C(CO)NC(=O)C(Cc1c[nH]c2ccccc12)NC(=O)C(Cc1c[nH]cn1)NC(=O)C1CCC(=O)N1 (stereo not given)", "inactive"),
    ("CC(C)NCC(O)c1cc(OCc2ccccc2)c(OCc2ccccc2)cc1NC(=O)CCC(=O)O (stereo not given)", "inactive"),
    ("Cc1c2cnccc2c(C)c2c1[nH]c1ccc(O)cc12", "active"),
    ("CCCCCC(O)(CCCCC)CCCCCCCCC1=C(O)C(=O)c2ccccc2C1=O", "inactive"),
    ("CCN(CC)c1c(-c2c(N(CC)CC)c(OC(C)=O)c3sccn3c2=O)c(=O)n2ccsc2c1OC(C)=O", "inactive"),
    ("C=C1CCN2CC[C@@H](OC(=O)/C(C)=C\\C)[C@@H]12", "inactive"),
    ("O=C1c2ccccc2C(=O)c2c(NCC(O)CO)ccc(NCC(O)CO)c21 (stereo not given)", "inactive"),
    ("C[n+]1cccc(/C=C/c2ccc3cccc(O)c3n2)c1", "inactive"),
    ("COCCN1C(=O)C2c3[nH]c4ccccc4c3C3CCC(C(C)(C)C)CC3C2C1=O (stereo not given)", "inactive"),
    ("CC1(C)C[C@@H]2C1CCC1(C)CC2(O)CC[C@H]1O (stereo not given in full)", "inactive"),
    ("CC(=O)[C@]1(O)Cc2c(O)c3c(c(O)c2C(OC2OC(C)C(O)C(O)C2F)C1)C(=O)c1ccccc1C3=O (stereo not given in full)", "active"),
    ("COc1cc(NCC2COc3c(ccc(OC)c3OC)C2=O)c([N+](=O)[O-])cc1OC (stereo not given)", "inactive"),
    ("Nc1nc(SC/C=C/c2ccccc2)c2[nH]cnc2n1", "inactive"),
    ("CNC(=O)Oc1ccc(-c2cn3cc(OC(=O)NC)ccc3n2)cc1", "inactive"),
    ("O=C1Oc2ccccc2N/C1=C/C(=O)c1ccc(Cl)cc1", "inactive"),
    ("O=C(/C=C1\\N=C(c2ccccc2)N(c2nc3c(Cl)cc(Cl)cc3s2)C1=O)/C=C/c1ccccc1", "inactive"),
    ("CN(c1ccccc1)S(=O)(=O)c1ccc([N+](=O)[O-])cc1", "inactive"),
    ("O=C(Nc1nn(C(=O)c2ccc(Cl)cc2)c(=O)s1)c1ccc(Cl)cc1", "inactive"),
    ("OC(CN(CCCl)CCCl)C(O)C(O)C(O)CN(CCCl)CCCl (stereo not given)", "inactive"),
    ("NC1=C(N2CCCCC2)C(=O)NC2=N/C(=C\\c3ccco3)C(=O)N21", "inactive"),
    ("COc1cc2c(cc1OC)C13CCN4CC5CCOC6CC(=O)N2C1C6C5CC43 (stereo not given)", "inactive"),
    ("CN(C)CCNc1c([N+](=O)[O-])sc2ccc(Cl)cc12", "inactive"),
    ("N#CC(C#N)=Cn1c(=S)[nH]c2ccccc21", "inactive"),
    ("CNc1ccc2nc(-c3ccc(OC(=O)N(C)C)cc3)cn2c1", "inactive"),
    ("Cc1nnc(N)s/c1=N/O", "inactive"),
    ("CSc1c(C#N)c2n(c3ccccc13)c1ccccc1[n+]2C", "inactive"),
]

====

# System: SK-OV-3
# ASSAY_NOTES: NCI tumour cell line growth inhibition, 48 h
Calls of active or inactive are those of the source. Cut-off read from the data, not from the text of the source: active = GI50 up to about 1.1 µM and inactive = higher.

# COMPOUND, TESTED_TARGET, GI50
rows = [
    ("[O-][n+]1c(CN2CCCCC2)nc2cccc3c2c1-c1ccccc1-3", "SK-OV-3", "26.1 µM (inactive)"),
    ("O=C(c1cc(Cl)cc(Cl)c1)N(Cc1cccnc1)C(=S)N(Cc1cccnc1)C(=O)c1cc(Cl)cc(Cl)c1", "SK-OV-3", "> 100 µM (inactive)"),
    ("Nc1ncnc2c1ncn2[C@@H]1O[C@H](C(=O)O)[C@@H](O)[C@H]1O", "SK-OV-3", "> 100 µM (inactive)"),
    ("CCCCON1C[C@H](OC(C)=O)C(OC(C)=O)[C@H](OC(C)=O)C1 (some centres undefined)", "SK-OV-3", "> 100 µM (inactive)"),
    ("O=C1c2ccccc2-c2nc(/C=C/c3ccccc3)cc3c2c1nc1ccccc13", "SK-OV-3", "34.1 µM (inactive)"),
    ("CCCCCOc1ccc(/C=N\\c2ccc(-c3ccc(/N=C\\c4ccc(OCCCCC)cc4)c(OC)c3)cc2OC)cc1", "SK-OV-3", "> 100 µM (inactive)"),
    ("OCCN1CCN(c2nc(N3CCCC3)c3nc(Cl)c(NCc4ccccc4)nc3n2)CC1", "SK-OV-3", "13.7 µM (inactive)"),
    ("CCOC(=O)NC(Nc1ccc(C(=O)O)cc1)(C(F)(F)F)C(F)(F)F", "SK-OV-3", "> 100 µM (inactive)"),
    ("CC(=O)OC1CC[C@@]2(C)C(=CC[C@@H]3[C@@H]2CC[C@]2(C)Nc4nn(S(C)(=O)=O)cc4C[C@@H]32)C1 (some centres undefined)", "SK-OV-3", "> 100 µM (inactive)"),
]

Data provenance is ChEMBL document CHEMBL1201862.
